targetSystem: GST-IN-CTD (HIV-1 integrase C-terminal domain) (HIV-1, UniProt P04585 1348-1435)
assayProcedure: competition (AlphaScreen); low salt; competes with His6-SUMO-INI1(183-304) (0.094 uM) for GST-CTD (0.186 uM); Alpha proximity assay, low salt (100 mM NaCl; 500 mM in salt test); buffer, pH and temperature not in the material
runConditions: protein: recombinant; tags: GST; hairpin
pIC50: −log10 of the molar value.
observationType: pIC50

Exam item: Item unlabeled TAR RNA (HIV-1 vRNA 1-57) (structured_RNA) RNA: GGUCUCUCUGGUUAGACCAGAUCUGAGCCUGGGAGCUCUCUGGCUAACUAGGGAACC has what recorded pIC50?
Marked response: ~8.30
